- target_or_system: T1, recombinant human soluble gpNMB (recombinant human gpNMB-FLAG-His) (human, UniProt Q14956 23-498)
- T1 sequence: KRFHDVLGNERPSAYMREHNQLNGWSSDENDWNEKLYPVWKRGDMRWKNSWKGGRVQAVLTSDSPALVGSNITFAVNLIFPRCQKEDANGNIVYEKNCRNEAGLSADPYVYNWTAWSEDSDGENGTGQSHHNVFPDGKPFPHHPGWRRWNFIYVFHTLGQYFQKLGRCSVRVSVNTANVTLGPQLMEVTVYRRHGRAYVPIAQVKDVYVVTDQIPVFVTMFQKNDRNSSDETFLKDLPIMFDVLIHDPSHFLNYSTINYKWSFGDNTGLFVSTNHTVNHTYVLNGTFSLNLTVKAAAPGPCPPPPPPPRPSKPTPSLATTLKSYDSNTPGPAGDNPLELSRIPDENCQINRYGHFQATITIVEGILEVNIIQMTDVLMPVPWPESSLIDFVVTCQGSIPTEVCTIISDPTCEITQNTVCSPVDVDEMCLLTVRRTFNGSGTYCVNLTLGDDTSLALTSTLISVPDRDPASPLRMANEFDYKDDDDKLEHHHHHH
- assay_comment: antigen ELISA
pEC50: −log10 of the molar value.
Mark condition met for reported pEC50 of 8 or greater; mark condition not met for anything smaller.

| binder | assigned_class |
| --- | --- |
| hGPN18-2_H2L3 VH L65A (antibody, V domains shown) VH: QVQLVQSGPGLVQPTQTLTLTCSFSGFSLSTSVMGVGWIRQPSGKGLEWLADIWWDDDKDYNPSAKSRLTISKDTSKNQVVLTMTNMDTVDTATYYCARTYYSNYEYYGMDYWGQGTLVTVSS VL: DIVMTQSPDSLAVSLGERATINCRSSQTIILSNGNTYLEWYQQKPGQPPKLLIYKVSNRFSGVPDRFSGSGSGTDFTLTISSLQAEDVAVYYCFQGSHVPFTFGSGTKLEIKR | condition met |
| hGPN18-2_H2L3 VH K66A (antibody, V domains shown) VH: QVQLVQSGPGLVQPTQTLTLTCSFSGFSLSTSVMGVGWIRQPSGKGLEWLADIWWDDDKDYNPSLASRLTISKDTSKNQVVLTMTNMDTVDTATYYCARTYYSNYEYYGMDYWGQGTLVTVSS VL: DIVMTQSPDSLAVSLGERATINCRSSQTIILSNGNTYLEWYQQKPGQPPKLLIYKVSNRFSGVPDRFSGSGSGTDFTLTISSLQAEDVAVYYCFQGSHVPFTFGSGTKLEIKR | condition met |
| hGPN18-2_H2L3 VH Y102A (antibody, V domains shown) VH: QVQLVQSGPGLVQPTQTLTLTCSFSGFSLSTSVMGVGWIRQPSGKGLEWLADIWWDDDKDYNPSLKSRLTISKDTSKNQVVLTMTNMDTVDTATYYCARTYASNYEYYGMDYWGQGTLVTVSS VL: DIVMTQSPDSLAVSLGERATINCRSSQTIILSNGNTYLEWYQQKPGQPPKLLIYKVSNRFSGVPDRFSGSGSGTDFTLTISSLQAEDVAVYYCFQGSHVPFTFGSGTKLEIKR | condition not met |
| hGPN18-2_H2L3 VH Y107A (antibody, V domains shown) VH: QVQLVQSGPGLVQPTQTLTLTCSFSGFSLSTSVMGVGWIRQPSGKGLEWLADIWWDDDKDYNPSLKSRLTISKDTSKNQVVLTMTNMDTVDTATYYCARTYYSNYEAYGMDYWGQGTLVTVSS VL: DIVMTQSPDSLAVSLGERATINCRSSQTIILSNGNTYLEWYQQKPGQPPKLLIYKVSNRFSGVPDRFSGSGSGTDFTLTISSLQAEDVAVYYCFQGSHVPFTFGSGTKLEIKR | condition not met |
| hGPN18-2_H2L3 (antibody, V domains shown, humanized; also called humanized anti-gpNMB antibody H2L3) VH: QVQLVQSGPGLVQPTQTLTLTCSFSGFSLSTSVMGVGWIRQPSGKGLEWLADIWWDDDKDYNPSLKSRLTISKDTSKNQVVLTMTNMDTVDTATYYCARTYYSNYEYYGMDYWGQGTLVTVSS VL: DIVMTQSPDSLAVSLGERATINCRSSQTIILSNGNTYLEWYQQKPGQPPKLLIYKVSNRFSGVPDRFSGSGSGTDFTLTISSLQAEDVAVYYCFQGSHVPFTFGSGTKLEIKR | condition met |
| hGPN18-2_H2L3 VH N62A (antibody, V domains shown) VH: QVQLVQSGPGLVQPTQTLTLTCSFSGFSLSTSVMGVGWIRQPSGKGLEWLADIWWDDDKDYAPSLKSRLTISKDTSKNQVVLTMTNMDTVDTATYYCARTYYSNYEYYGMDYWGQGTLVTVSS VL: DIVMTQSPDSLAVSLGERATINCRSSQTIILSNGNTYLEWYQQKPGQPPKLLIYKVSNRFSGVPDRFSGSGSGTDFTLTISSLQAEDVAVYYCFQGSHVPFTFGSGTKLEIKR | condition met |
